The reported numbers originate from PubChem BioAssay (NCI).

system: A549/ATCC NSCLC; test: NCI-60 one-dose screen, 48 h (100 = growth as untreated, 0 = no growth, -100 = all killed); details: 10 µM unless noted
This is part of a sample that, as a whole, favours compounds with a hit. Of some 83,000 tested, about 20% had one in any assay.
Measurement type: growth (%)
Record the value in %, omitting the unit from your answer.

// worked examples, growth included
Compound: C=C1CC[C@@H]2[C@]3(C)COC(c4cn(-c5ccccc5)nc4-c4cccc([N+](=O)[O-])c4)O[C@@H]3CC[C@@]2(C)[C@@H]1C/C=C1/C(=O)OC[C@H]1O (stereo partly specified)
Study system: A549/ATCC NSCLC
Value reported: 30.7
--
Compound: CCCCSc1nc(NCCc2c[nH]c3ccccc23)c(C#N)c(-c2ccccc2)n1
Study system: A549/ATCC NSCLC
Value reported: 39.1
--
Compound: N#Cc1c(NCc2ccccc2)n[nH]c1Nc1ccccc1
Study system: A549/ATCC NSCLC
Value reported: 31.6
--
Compound: CCCCCCn1c(O)c(N=Nc2nc(-c3cc4ccccc4oc3=O)cs2)c2ccccc21
Study system: A549/ATCC NSCLC
Value reported: -16.6
--
Compound: C#CCOc1ccc(/C=N/Nc2nc(-c3ccc(Cl)cc3)cs2)cc1OC
Study system: A549/ATCC NSCLC
Value reported: 64.4
--
Compound: CSc1ccc(C(=O)Nc2ccc3nn(/C(C#N)=C/c4ccccn4)nc3c2)cc1
Study system: A549/ATCC NSCLC
Value reported: 10.6

Prompt line: Output measured growth for this item: "N#Cc1c(-c2ccc(Br)cc2)nc2n[nH]c(-c3ccc(Br)cc3)c2c1-c1ccc(F)cc1"
Response line: 99.7
